All values here come from ChEMBL document CHEMBL1126725.

Molecular target: Sodium-dependent serotonin transporter (Homo sapiens, UniProt P31645)
Sequence (P31645 whole entry): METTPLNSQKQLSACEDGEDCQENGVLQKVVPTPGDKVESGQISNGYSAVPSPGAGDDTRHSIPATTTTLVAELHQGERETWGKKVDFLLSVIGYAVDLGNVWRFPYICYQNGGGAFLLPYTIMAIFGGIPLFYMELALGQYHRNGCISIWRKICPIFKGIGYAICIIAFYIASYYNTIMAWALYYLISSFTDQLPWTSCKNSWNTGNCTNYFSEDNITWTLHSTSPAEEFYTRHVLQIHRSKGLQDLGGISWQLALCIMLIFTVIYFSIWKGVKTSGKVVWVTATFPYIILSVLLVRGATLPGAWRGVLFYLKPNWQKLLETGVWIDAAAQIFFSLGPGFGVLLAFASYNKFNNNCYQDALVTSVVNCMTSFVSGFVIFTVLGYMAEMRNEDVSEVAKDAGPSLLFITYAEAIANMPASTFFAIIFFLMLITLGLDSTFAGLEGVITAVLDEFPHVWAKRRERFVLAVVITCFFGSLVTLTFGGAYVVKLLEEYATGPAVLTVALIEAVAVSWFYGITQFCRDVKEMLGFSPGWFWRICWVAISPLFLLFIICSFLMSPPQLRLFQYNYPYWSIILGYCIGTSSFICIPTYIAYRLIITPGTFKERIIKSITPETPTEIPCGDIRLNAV
readout.kind: IC50 (nM)

In [3]: df
Out[3]:
                                   compound  measurement_units  data_value
0  COC(=O)C1C2CC[C@H](C[C@@H]1c1ccc(I)cc1)N2C (stereo partly specified)                 nM         3.8
